test_summary: qHTS assay to identify small molecule antagonists of the estrogen receptor alpha (ER-alpha) signaling pathway using the BG1 cell line (AID 743080);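 further: BG1 cells stimulated with 17beta-estradiol alongside compound; nearly all actives have a fitted effect of over 25% in size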
experimental_conditions: BG1Luc4E2 ERE-luciferase antagonist mode, luminescence; series mostly up to 70.3 µM
Inconclusive results are not listed. Calls of active or inactive are those of the source. The call rests on the fitted dose curve.
measured_parameter: outcome

Ask: Requested field: outcome. Item: CCCCOCCO
Result: inactive

Ask: Input OCC1CCCO1 (centres undefined)
Result: inactive

Ask: Try Clc1cc(Cl)c(Cl)cc1Cl next.
Result: inactive

Ask: Moving on to the next molecule: C=CC(=O)OCCCCCCCC(C)C
Result: inactive

Ask: Same read-out for CC(C)(C)C1CCC(O)CC1 (centres undefined) ?
Result: inactive

Continuing:
Ask: Which outcome value belongs to CCCCCC/C=C/CCCCCCCC(=O)O ?
Result: inactive

Ask: Now try OC[C@@H](O)[C@H](O)[C@H](O)[C@@H](O)CO .
Result: inactive

Ask: Moving on to the next molecule: O=C1O[C@H](CO)[C@@H](O)[C@H](O)[C@H]1O
Result: inactive

Ask: What about O=C(c1cc(O)c(O)c(O)c1)c1ccc(O)c(O)c1O ?
Result: inactive

Ask: Let us now turn to CCCCC/C=C\C/C=C\CCCCCCCC(=O)OC
Result: inactive

Ask: Also CCOC(=O)[C@H](CCc1ccccc1)N[C@@H](C)C(=O)N1Cc2ccccc2C[C@H]1C(=O)O , if possible.
Result: inactive

Ask: Now consider COCC(C)O (centres undefined) .
Result: inactive

Ask: # repeat for CS(=O)(=O)c1ccc([C@@H](O)[C@@H](CO)NC(=O)C(Cl)Cl)cc1
Result: inactive

Ask: Now the same for COC(=O)c1ccc(C(=O)OC)cc1
Result: inactive

====

target_of_assay: Voltage-gated inwardly rectifying potassium channel KCNH2 (Homo sapiens)
test_summary: Human Ether-a-go-go-Related Gene (hERG) channel small molecule antagonists: fluorescence cell-based qHTS assay (AID 1671200);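 further: hERG-expressing U2OS cells given a thallium stimulus after FluxOR II dye loading; nearly all actives have a fitted effect of over 50% in size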
experimental_conditions: hERG-U2OS cells, FluxOR thallium flux fluorescence; series mostly up to 76.8 µM
Results filed as inconclusive are left out. Activity calls are given as the source filed them. Calls come from the whole dose curve; as a rule, active = well fitted inhibition curve with a large enough effect in the repeat runs; inconclusive = weak or mixed curves; inactive = flat fitted curve, though single readings scatter.
measured_parameter: outcome

Ask: What does the data say about its outcome? Entry: O=S(=O)(O)c1cc(S(=O)(=O)O)c2c(N=Nc3ccccc3)c(O)ccc2c1
Result: inactive

Ask: Please do the same for Cc1ccc(N)c(S(=O)(=O)O)c1 as well.
Result: inactive

Ask: // query: OC[C@@H](O)[C@@H](O)[C@H](O)[C@@H](O)CO
Result: inactive

Ask: Queued: CCCCCCCCCCCCOCC1CO1 (stereo not given)
Result: inactive

Ask: What about CCCCNC(N)=O ?
Result: inactive

---
Ask: Value lookup for outcome; key = C/C=C(C)/C=C/C=C(C)C
Result: inactive

Ask: Quick one: C=C(C)C(=O)OCCC[Si](OC)(OC)OC
Result: inactive

Ask: Next up: CC1=CC[C@H]2C[C@@H]1C2(C)C
Result: inactive

Ask: Would you mind doing O=S(=O)(O)CCS as well?
Result: inactive

Ask: Try this compound next: OCCOCCOCCOCCO
Result: inactive

Ask: Could you do the same for CC1(C)CC(N=C=O)CC(C)(CN=C=O)C1 (stereo not given) , please?
Result: inactive

Ask: Let us now turn to OCC#CCO
Result: inactive

Ask: Lookup c1ccc2ccccc2c1
Result: inactive

Ask: Then NCc1cccc(CN)c1 ?
Result: inactive

Ask: // next record NS(=O)(=O)c1cc2c(cc1Cl)NC=NS2(=O)=O
Result: inactive
